# Tested On: T1, human MSLN-R3-his protein (human, UniProt Q13421 487-598)
# T1 construct: Made in HEK293E cells, purified on nickel column; also called hMSLN-R3-his; human MSLN-R3 protein; not shown: His tag
# T1 sequence (Q13421 495-606): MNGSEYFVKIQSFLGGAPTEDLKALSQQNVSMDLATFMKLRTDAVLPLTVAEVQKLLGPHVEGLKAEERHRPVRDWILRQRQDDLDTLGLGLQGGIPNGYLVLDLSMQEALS
# Assay Text: ELISA, coated antigen, antibody 0.1 nM
A collection of binders and their measured OD450
Lab note: record just the number, no unit beside it.

// fetch OD450 given entry S009-F5-9.16 chimeric antibody (antibody, human IgG1, kappa, V domains shown, Human-murine chimeric antibody, human IgG1/kappa constant regions) VH: EVQLRQSGPVLVKPGASVKMSCKASGYTFTDYFMNWVKPSHGKSLEWIGVINPSNGVINYNQRFKGKATLTVDKSSSTAYMELNSLTSEDSAVYYCARSYDFAWFAYWGQGTLVTVSA VL: DVLMTQTPLSLPVSLGDQASISCRSSQNIVHSNGNTYLEWYLQKPGQSPKLLIYTVSNRFSGVPDRFSGSGSGTDFTLKISRVEAEDLGVYYCFQGSHVPYTFGGGTKLEIKR 1.82

// fetch OD450 given entry Tab106 (YP218, hIgG1) (antibody, V domains shown, Control: YP218 VH and VL recombined into human IgG1 CH and CL expression vectors; also called YP218 human IgG1 antibody) VH: QQQLEESGGGLVKPEGSLTLTCKASGFDLGFYFYACWVRQAPGKGLEWIACIYTAGSGSTYYASWAKGRFTISKASSTTVTLQMTSLAAADTATYFCARSTANTRSTYYLNLWGPGTLVTVSS VL: DVVMTQTPASVSEPVGGTVTIKCQASQRISSYLSWYQQKPGQRPKLLIFGASTLASGVPSRFKGSGSGTEYTLTISDLECADAATYYCQSYAYFDSNNWHAFGGGTEVVVRT 0.88

// fetch OD450 given entry S009-F4-94.15 chimeric antibody (antibody, human IgG1, kappa, V domains shown, Human-murine chimeric antibody: murine VH/VL on human IgG1 heavy and kappa light constant regions) VH: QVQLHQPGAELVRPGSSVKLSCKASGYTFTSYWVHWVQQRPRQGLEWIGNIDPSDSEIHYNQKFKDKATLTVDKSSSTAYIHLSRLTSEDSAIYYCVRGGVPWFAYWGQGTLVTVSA VL: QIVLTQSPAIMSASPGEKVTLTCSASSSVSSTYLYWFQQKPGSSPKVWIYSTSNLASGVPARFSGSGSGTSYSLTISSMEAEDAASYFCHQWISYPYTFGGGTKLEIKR 0.17

// fetch OD450 given entry S009-F4-127.10 chimeric antibody (antibody, human IgG1, kappa, V domains shown, Human-murine chimeric antibody, human IgG1/kappa constant regions) VH: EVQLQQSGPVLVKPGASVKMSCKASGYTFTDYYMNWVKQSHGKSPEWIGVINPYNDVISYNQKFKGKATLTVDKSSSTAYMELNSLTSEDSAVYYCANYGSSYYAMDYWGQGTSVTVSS VL: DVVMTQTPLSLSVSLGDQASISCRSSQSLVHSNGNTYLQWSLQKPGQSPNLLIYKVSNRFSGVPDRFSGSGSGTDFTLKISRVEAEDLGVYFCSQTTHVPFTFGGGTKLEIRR 1.31

// fetch OD450 given entry S009-F6-76.1 chimeric antibody (antibody, human IgG1, kappa, V domains shown, Human-murine chimeric antibody, human IgG1/kappa constant regions) VH: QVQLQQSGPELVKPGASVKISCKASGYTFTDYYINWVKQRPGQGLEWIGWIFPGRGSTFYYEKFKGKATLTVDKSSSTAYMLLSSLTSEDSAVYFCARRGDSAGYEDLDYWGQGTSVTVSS VL: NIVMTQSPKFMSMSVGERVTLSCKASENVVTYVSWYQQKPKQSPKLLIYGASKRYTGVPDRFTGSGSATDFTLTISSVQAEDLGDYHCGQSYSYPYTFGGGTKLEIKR 0.04
